Measured In vitro Activity Compared to Native Peptide (%) vs. GIP values are reported for all entries that follow.
Molecular target: T1, human GIP receptor (human, UniProt P48546 22-466)
T1 sequence (looked up): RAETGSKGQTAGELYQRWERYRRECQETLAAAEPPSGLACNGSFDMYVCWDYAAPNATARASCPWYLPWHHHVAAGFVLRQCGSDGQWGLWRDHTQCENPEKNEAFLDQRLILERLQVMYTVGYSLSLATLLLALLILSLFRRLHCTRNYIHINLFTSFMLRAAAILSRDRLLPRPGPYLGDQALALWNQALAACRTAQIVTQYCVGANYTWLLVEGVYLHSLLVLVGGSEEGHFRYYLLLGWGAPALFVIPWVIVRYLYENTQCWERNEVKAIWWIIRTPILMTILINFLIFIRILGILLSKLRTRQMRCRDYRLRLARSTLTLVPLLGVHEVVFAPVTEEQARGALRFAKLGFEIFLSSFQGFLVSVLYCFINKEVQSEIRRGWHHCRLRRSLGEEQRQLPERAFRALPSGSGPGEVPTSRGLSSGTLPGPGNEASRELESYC
Assay: cell-based or functional assay
Positions of bridges follow the written chain, without caps; N, C: chain ends. Non-standard residues stand in square brackets, D forms with d. No end group written: not given here. *: point of attachment. Acetyl(2-(4-imidazolyl)) = O=C(Cc1c[nH]cn1)*; Aib = CC(C)(N)C(=O)O
Hi! Could you send only the number? It should be in %, unit omitted.

Sample answers from the record:
Y[Aib]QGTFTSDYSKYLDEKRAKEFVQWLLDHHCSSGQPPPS (bridge 16-20) [triple agonist of SEQ ID NO: 43]; 3.7
Y[Aib]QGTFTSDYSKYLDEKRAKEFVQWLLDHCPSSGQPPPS (bridge 16-20) [triple agonist of SEQ ID NO: 96]; 5.2

Any idea what its In vitro Activity Compared to Native Peptide (%) vs. GIP is? The binder is Y[Aib]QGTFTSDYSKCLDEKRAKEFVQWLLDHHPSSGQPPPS (bridge 16-20) [triple agonist of SEQ ID NO: 22]
59.7

Next record, please: H[Aib]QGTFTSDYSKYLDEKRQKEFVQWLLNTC (bridge 16-20) [triple agonist of SEQ ID NO: 51]
0.1

Next record, please: Y[Aib]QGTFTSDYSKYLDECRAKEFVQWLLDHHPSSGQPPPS (bridge 16-20) [triple agonist of SEQ ID NO: 21]
22.7

Next record, please: [Acetyl(2-(4-imidazolyl))][Aib]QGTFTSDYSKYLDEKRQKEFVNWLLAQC (bridge 16-20) [triple agonist of SEQ ID NO: 86]
0.2

Next record, please: [Acetyl(2-(4-imidazolyl))][Aib]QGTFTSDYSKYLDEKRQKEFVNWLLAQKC (bridge 16-20) [triple agonist of SEQ ID NO: 93]
0.7

Every entry's value here was drawn from patent US20230118307A1.
